- ASSAY_EXPLANATION: Plasma concentration in Wistar rat at 1 mg/kg administered as single dose through oral gavage after 6 hrs by LC-MS/MS analysis
- Format: ADME, organism-based
QUANTITY_KIND: concentration at 6 h (ng/mL)
One number for each entry, in ng/mL.

Exercise: Please give the measured concentration at 6 h for this compound: CCc1cc(-c2noc(-c3cc(C)c(CN(C)CC(C)C)s3)n2)cc(C)c1OC[C@@H](O)CNC(=O)CO
Key: 49

----------
- TARGET_DESC: Sphingosine 1-phosphate receptor 5 (Homo sapiens, UniProt Q9H228)
- Sequence (Q9H228 whole entry): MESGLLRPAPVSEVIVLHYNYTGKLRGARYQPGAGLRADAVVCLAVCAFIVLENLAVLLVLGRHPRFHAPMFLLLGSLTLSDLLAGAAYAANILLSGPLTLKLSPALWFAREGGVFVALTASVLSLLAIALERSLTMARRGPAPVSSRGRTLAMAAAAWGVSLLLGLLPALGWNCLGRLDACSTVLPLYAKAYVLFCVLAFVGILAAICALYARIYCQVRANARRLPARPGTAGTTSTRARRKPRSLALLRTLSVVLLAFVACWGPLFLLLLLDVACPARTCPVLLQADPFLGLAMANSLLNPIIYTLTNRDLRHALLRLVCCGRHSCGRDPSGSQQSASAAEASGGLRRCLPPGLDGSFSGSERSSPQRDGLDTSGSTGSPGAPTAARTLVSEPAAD
- ASSAY_EXPLANATION: Agonist activity at S1PR5 (unknown origin)
QUANTITY_KIND: EC50 (nM)
One number for each entry, in nM.

Exercise: EC50 of CCc1cc(-c2noc(-c3cc(C)c(CN(C)CC(C)C)s3)n2)cc(C)c1OC[C@@H](O)CNC(=O)CO on Sphingosine 1-phosphate receptor 5 (Homo sapiens, UniProt Q9H228)?
Key: 753

----------
- Tested on: Rattus norvegicus
- ASSAY_EXPLANATION: Change in circulating lymphocyte count in Wistar rat at 10 mg/kg administered as single dose through oral gavage after 6 hrs relative to control
- Type: functional
QUANTITY_KIND: Activity

Sample answers from the record:
| SMILES_ENTRY | Activity |
| --- | --- |
| CCc1cc(-c2noc(-c3cc(C)cc(CN(C)CC)c3)n2)cc(C)c1OC[C@@H](O)CNC(=O)CO | -58% |
| CCc1cc(-c2noc(-c3cc(C)c(CN(C)CC(C)C)s3)n2)cc(C)c1OC[C@@H](O)CNC(=O)CO | -77% |
| CCc1cc(-c2noc(-c3cc(C)nc(CN(C)CC(C)C)c3)n2)cc(C)c1OC[C@@H](O)CNC(=O)CO | -75% |
| CCc1cc(-c2noc(-c3cc(C)cc(CN(C)C)c3)n2)cc(C)c1OC[C@@H](O)CNC(=O)CO | -37% |
| CCCCN(C)Cc1cc(C)cc(-c2nc(-c3cc(C)c(OC[C@@H](O)CNC(=O)CO)c(CC)c3)no2)c1 | -57% |

Would you mind listing Activity for each of the following compounds?
1. CCc1cc(-c2noc(-c3cc(C)cc(CN(C)CC(C)C)c3)n2)cc(C)c1OC[C@@H](O)CNC(=O)CO
2. CCc1cc(-c2noc(-c3cc(C)c(CN(C)C)s3)n2)cc(C)c1OC[C@@H](O)CNC(=O)CO
3. CCc1cc(-c2nc(-c3cc(C)c(OC[C@@H](O)CNC(=O)CO)c(CC)c3)no2)ccc1CN(C)C

Key:
1. -53%
2. -56%
3. -61%

----------
Consider the following compounds; for each one, report its Activity.
- Test system: Rattus norvegicus
- ASSAY_EXPLANATION: Change in circulating lymphocyte count in Wistar rat at 10 mg/kg administered as single dose through oral gavage after 24 hrs relative to control
- Format: functional
Answers are plain numbers, in %.

Sample answers from the record:
| SMILES_ENTRY | EXPERIMENTAL_RESULT |
| --- | --- |
| CCc1cc(-c2noc(-c3cc(C)c(CN(C)C)s3)n2)cc(C)c1OC[C@@H](O)CNC(=O)CO | 5 |
| CCc1cc(-c2noc(-c3cc(C)c(CN(C)CC(C)C)s3)n2)cc(C)c1OC[C@@H](O)CNC(=O)CO | -70 |
| CCc1cc(-c2noc(-c3cc(C)cc(CN(C)CC)c3)n2)cc(C)c1OC[C@@H](O)CNC(=O)CO | 24 |
| CCc1cc(-c2noc(-c3cc(C)cc(CN(C)CC(C)C)c3)n2)cc(C)c1OC[C@@H](O)CNC(=O)CO | -44 |
| CCc1cc(-c2nc(-c3cc(C)c(OC[C@@H](O)CNC(=O)CO)c(CC)c3)no2)ccc1CN(C)C | 27 |
| CCCCN(C)Cc1cc(C)cc(-c2nc(-c3cc(C)c(OC[C@@H](O)CNC(=O)CO)c(CC)c3)no2)c1 | -6 |
| CCc1cc(-c2noc(-c3cc(C)nc(CN(C)CC(C)C)c3)n2)cc(C)c1OC[C@@H](O)CNC(=O)CO | 1 |

Now turn to the next compound.
Exercise: Activity of CCc1cc(-c2noc(-c3cc(C)cc(CN(C)C)c3)n2)cc(C)c1OC[C@@H](O)CNC(=O)CO on Rattus norvegicus?
Key: 21

----------
- ASSAY_EXPLANATION: Ratio of total drug level in brain to plasma in Wistar rat at 10 mg/kg administered as single dose through oral gavage after 2 hrs
- Assay type: ADME, organism-based
- REPORTED_CONDITIONS: read-out: BPR
QUANTITY_KIND: Kp at 2 h

Exercise: Please give the measured Kp at 2 h for this compound: CCc1cc(-c2noc(-c3cc(C)c(CN(C)CC(C)C)s3)n2)cc(C)c1OC[C@@H](O)CNC(=O)CO
Key: 0.64

----------
- ASSAY_EXPLANATION: Plasma concentration in Wistar rat at 3 mg/kg administered as single dose through oral gavage after 3 hrs by LC-MS/MS analysis
- Assay type: ADME, organism-based
QUANTITY_KIND: concentration at 3 h

Exercise: Please give the measured concentration at 3 h for this compound: CCc1cc(-c2noc(-c3cc(C)c(CN(C)CC(C)C)s3)n2)cc(C)c1OC[C@@H](O)CNC(=O)CO
Key: 210 ng/mL

----------
- ASSAY_EXPLANATION: Apparent oral clearance in Wistar rat plasma at 1 to 10 mg/kg administered through gavage by LC-MS/MS analysis
- Assay type: ADME, organism-based
Consider the following compounds; for each one, report its CL/F.
Answers are plain numbers, in mL/min/kg.

Sample answers from the record:
| SMILES_ENTRY | CL/F (mL/min/kg) |
| --- | --- |
| CCc1cc(-c2noc(-c3cc(C)nc(CN(C)CC(C)C)c3)n2)cc(C)c1OC[C@@H](O)CNC(=O)CO | 80 |
| CCc1cc(-c2noc(-c3cc(C)cc(CN(C)CC(C)C)c3)n2)cc(C)c1OC[C@@H](O)CNC(=O)CO | 8 |
| CCc1cc(-c2noc(-c3cc(C)c(CN(C)C)s3)n2)cc(C)c1OC[C@@H](O)CNC(=O)CO | 275 |

Now turn to the next compound.
Exercise: Please give the measured CL/F for this compound: CCc1cc(-c2noc(-c3cc(C)c(CN(C)CC(C)C)s3)n2)cc(C)c1OC[C@@H](O)CNC(=O)CO
Key: 19

----------
Consider the following compounds; for each one, report its EC50.
- TARGET_DESC: Sphingosine 1-phosphate receptor 1 (Homo sapiens)
- Sequence (P21453 whole entry): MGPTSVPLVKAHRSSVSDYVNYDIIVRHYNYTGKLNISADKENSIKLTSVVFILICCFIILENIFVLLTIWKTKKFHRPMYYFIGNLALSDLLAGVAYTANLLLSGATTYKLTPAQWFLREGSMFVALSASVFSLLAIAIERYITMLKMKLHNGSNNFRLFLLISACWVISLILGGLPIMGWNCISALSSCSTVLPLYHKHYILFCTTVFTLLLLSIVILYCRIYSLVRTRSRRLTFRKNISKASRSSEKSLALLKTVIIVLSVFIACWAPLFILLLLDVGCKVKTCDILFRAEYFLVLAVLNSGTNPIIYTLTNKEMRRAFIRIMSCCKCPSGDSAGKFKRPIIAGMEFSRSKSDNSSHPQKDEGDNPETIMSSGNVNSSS
- ASSAY_EXPLANATION: Agonist activity at human recombinant S1PR1 expressed in CHO cell membranes assessed as [35S]GTPgammaS binding preincubated for 30 mins followed by [35S]GTPgammaS addition measured after 1 hr by topcount analysis
Give bare numbers, in nM.

| SMILES_ENTRY | EC50 [nM] |
| --- | --- |
| CCc1cc(-c2noc(-c3cc(CN(C)CC(C)C)cc(C(C)C)c3)n2)cc(C)c1OC[C@@H](O)CNC(=O)CO | 1.1 |
| CCCCN(C)Cc1ccc(-c2nc(-c3cc(C)c(OC[C@@H](O)CNC(=O)CO)c(CC)c3)no2)cc1C | 5.3 |

Would you mind listing EC50 for each of the following compounds?
1. CCc1cc(-c2noc(-c3cc(C)nc(CN4CCCC4)c3)n2)cc(C)c1OC[C@@H](O)CNC(=O)CO
2. CCc1cc(-c2noc(-c3ccc(CN4CCCC4)c(C)c3)n2)cc(C)c1OC[C@@H](O)CNC(=O)CO

Key:
95
50

----------
- ASSAY_EXPLANATION: Total brain concentration in Wistar rat at 10 mg/kg administered as single dose through oral gavage after 6 hrs by LC-MS/MS analysis
- Format: ADME, organism-based
- REPORTED_CONDITIONS: read-out: Drug uptake
QUANTITY_KIND: concentration at 6 h (ng/g)
Numbers only, in ng/g.

Exercise: Please give the measured concentration at 6 h for this molecule: CCc1cc(-c2noc(-c3cc(C)c(CN(C)CC(C)C)s3)n2)cc(C)c1OC[C@@H](O)CNC(=O)CO
Key: 1030

----------
- ASSAY_EXPLANATION: Total plasma concentration in Wistar rat at 10 mg/kg administered as single dose through oral gavage after 2 hrs by LC-MS/MS analysis
- Type: ADME, organism-based
QUANTITY_KIND: concentration at 2 h (ng/mL)
One number for each entry, in ng/mL.

Exercise: Please give the measured concentration at 2 h for this compound: CCc1cc(-c2noc(-c3cc(C)c(CN(C)CC(C)C)s3)n2)cc(C)c1OC[C@@H](O)CNC(=O)CO
Key: 783

----------
- TARGET_DESC: Sphingosine 1-phosphate receptor 3 (Homo sapiens)
- Sequence (Q99500 whole entry): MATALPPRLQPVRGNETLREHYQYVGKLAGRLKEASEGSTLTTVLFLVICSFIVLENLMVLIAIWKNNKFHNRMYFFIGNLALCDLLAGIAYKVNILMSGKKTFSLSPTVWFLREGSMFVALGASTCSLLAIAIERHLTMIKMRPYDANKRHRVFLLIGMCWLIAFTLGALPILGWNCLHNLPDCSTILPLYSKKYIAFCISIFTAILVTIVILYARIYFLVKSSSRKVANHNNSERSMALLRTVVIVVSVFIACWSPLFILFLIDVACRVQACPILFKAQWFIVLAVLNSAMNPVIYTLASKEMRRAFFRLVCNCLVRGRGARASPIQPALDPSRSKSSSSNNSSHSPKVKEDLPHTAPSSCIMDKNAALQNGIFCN
- ASSAY_EXPLANATION: Agonist activity at human recombinant S1PR3 expressed in CHO cell membranes assessed as [35S]GTPgammaS binding preincubated for 30 mins followed by [35S]GTPgammaS addition measured after 1 hr by topcount analysis
QUANTITY_KIND: pEC50
Give bare numbers, as −log10 of the molar value.

| SMILES_ENTRY | pEC50 |
| --- | --- |
| CCCCN(C)Cc1cc(-c2nc(-c3cc(C)c(OC[C@@H](O)CNC(=O)CO)c(CC)c3)no2)ccc1C | 5.54 |

Now turn to the next compound.
Exercise: Please give the measured pEC50 for this compound: CCc1cc(-c2noc(-c3ccc(C)c(CN(C)CC)c3)n2)cc(C)c1OC[C@@H](O)CNC(=O)CO
Key: 5.05
